- System: K562
- experimental details: percentage of the dead cells of K-562 cells was determined for the concentration of 1 uM of the compound.
- Type: ADME, cell-based
- condition description: human, k562, 1 µM
quantity kind: Dead cells (%)
Numbers only, in %.

As a guide, the following entries are already answered.
Cl.N#CC(CCCNCc1c2ccccc2cc2ccccc12)(c1ccccc1)c1ccccc1 = 20
COc1ccc(C(C#N)(CCCNCc2cc3ccccc3c3ccccc23)C(C)C)cc1OC.Cl (centres undefined) = 100
Cl.N#CC(CCCNCC(c1ccccc1)c1ccccc1)(c1ccccc1)c1ccccc1 = 40
Cl.N#CC(CCCNC(c1ccccc1)c1ccccc1)(c1ccccc1)c1ccccc1 = 2
COc1ccc(C(C#N)(CC#CCNCc2c3ccccc3cc3ccccc23)C(C)C)cc1OC.Cl (centres undefined) = 15
C=CCNc1nc(NCC=C)nc(N2CCC(NCC#CCC(C#N)(c3ccc(OC)c(OC)c3)C(C)C)CC2)n1.Cl (centres undefined) = 0

Hi there! I need Dead cells for each item below, if you can.
1. COc1ccc(C(C#N)(CC#CCNCc2cc3ccccc3c3ccccc23)C(C)C)cc1OC.Cl (centres undefined)
2. CN(CCCC(C#N)(c1ccccc1)c1ccccc1)Cc1c2ccccc2cc2ccccc12.Cl
3. COc1ccc(C(C#N)(CCCNCc2c3ccccc3cc3ccccc23)C(C)C)cc1OC.Cl (centres undefined)

Completion:
1: 20; 2: 0; 3: 3

---

What Alpha max was measured for each of the following?
- System: K562
- experimental details: The efficacy in reverting MDR was evaluated on human erythroleukemia K-562 cell line
- Type: functional

As a guide, the following entries are already answered.
C=CCNc1nc(NCC=C)nc(N2CCC(NCCCC(C#N)(c3ccc(OC)c(OC)c3)C(C)C)CC2)n1.Cl (centres undefined) = 0.9
COc1ccc(C(C#N)(CCCN(C)CC2c3ccccc3-c3ccccc32)C(C)C)cc1OC.Cl (centres undefined) = 0.5
COc1ccc(C(C#N)(CCCN(C)C2c3ccccc3-c3ccccc32)C(C)C)cc1OC.Cl (centres undefined) = 0.8
COc1ccc(C(C#N)(CC#CCNC2c3ccccc3-c3ccccc32)C(C)C)cc1OC.Cl (centres undefined) = 0.7

Hi there! I need Alpha max for each item below, if you can.
1. COc1ccc(C(C#N)(CC#CCN(C)C2c3ccccc3-c3ccccc32)C(C)C)cc1OC.Cl (centres undefined)
2. Cl.N#CC(CCCNC1c2ccccc2-c2ccccc21)(c1ccccc1)c1ccccc1
3. COc1ccc(C(C#N)(CC#CCNC(c2ccccc2)c2ccccc2)C(C)C)cc1OC.Cl (centres undefined)
4. COc1ccc(C(C#N)(CC#CCN(C)CC23CC4CC(CC(C4)C2)C3)C(C)C)cc1OC.Cl (centres undefined)
5. COc1ccc(C(C#N)(CCCNC(c2ccccc2)c2ccccc2)C(C)C)cc1OC.Cl (centres undefined)

Completion:
1: 0.9; 2: 0.8; 3: 0.6; 4: 0.8; 5: 0.7

---

What Activity was measured for each of the following?
- Organism: Cavia porcellus
- experimental details: Percent inhibition of calcium-induced contraction on K+ depolarized guinea pig aortic strip.
- Format: functional, Aorta
- Design: concentration or dose not given beside the values
Give bare numbers, in %.

CN(CCCC(C#N)(c1ccccc1)c1ccccc1)Cc1c2ccccc2cc2ccccc12.Cl = 10
COc1ccc(C(C#N)(CCCNCC2c3ccccc3-c3ccccc32)C(C)C)cc1OC.Cl (stereo not given) = 26
COc1ccc(C(C#N)(CC#CCN(C)CC23CC4CC(CC(C4)C2)C3)C(C)C)cc1OC.Cl (stereo not given) = 65

Hi there! I need Activity for each item below, if you can.
1. COc1ccc(C(C#N)(CCCNCc2cc3ccccc3c3ccccc23)C(C)C)cc1OC.Cl (stereo not given)
2. COc1ccc(C(C#N)(CCCN(C)CC23CC4CC(CC(C4)C2)C3)C(C)C)cc1OC.Cl (stereo not given)

Completion:
1. 19
2. 39

---

What Alpha max was measured for each of the following?
- Test system: K562
- experimental details: The efficacy in reverting MDR was evaluated on human erythroleukemia K-562 cell line
- Type: functional
Answers are plain numbers.

COc1ccc(C(C#N)(CC#CCNCC(c2ccccc2)c2ccccc2)C(C)C)cc1OC.Cl (stereo unspecified) = 0.7
COc1ccc(C(C#N)(CCCNC2c3ccccc3-c3ccccc32)C(C)C)cc1OC.Cl (stereo unspecified) = 0.8
Cl.N#CC(CCCNC1c2ccccc2CCc2ccccc21)(c1ccccc1)c1ccccc1 = 0.5
CN(CCCC(C#N)(c1ccccc1)c1ccccc1)C1c2ccccc2-c2ccccc21.Cl = 0.9
COc1ccc(C(C#N)(CCCN(C)Cc2c3ccccc3cc3ccccc23)C(C)C)cc1OC.Cl (stereo unspecified) = 0.5

Form field Alpha max, entry COc1ccc(C(C#N)(CCCNC2c3ccccc3CCc3ccccc32)C(C)C)cc1OC.Cl (stereo unspecified) : 0.8

---

- Organism: Cavia porcellus
- experimental details: Potency expressed as EC50 for the negative inotropic activity.
- Type: functional
What EC50 was measured for each of the following?
One number for each entry, in nM.

As a guide, the following entries are already answered.
Cl.N#CC(CCCNC1c2ccccc2-c2ccccc21)(c1ccccc1)c1ccccc1 = 1810
Cl.N#CC(CCCNCc1cc2ccccc2c2ccccc12)(c1ccccc1)c1ccccc1 = 2110
COc1ccc(C(C#N)(CCCN(C)CC2c3ccccc3-c3ccccc32)C(C)C)cc1OC.Cl (centres undefined) = 1010
CN(CCCC(C#N)(c1ccccc1)c1ccccc1)C1c2ccccc2-c2ccccc21.Cl = 900
COc1ccc(C(C#N)(CC#CCN(C)CC2c3ccccc3-c3ccccc32)C(C)C)cc1OC.Cl (centres undefined) = 1110

Hi there! I need EC50 for each item below, if you can.
1. COc1ccc(C(C#N)(CCCNC(c2ccccc2)c2ccccc2)C(C)C)cc1OC.Cl (centres undefined)
2. COc1ccc(C(C#N)(CCCN(C)CC23CC4CC(CC(C4)C2)C3)C(C)C)cc1OC.Cl (centres undefined)
3. Cl.N#CC(CCCNC12CC3CC(CC(C3)C1)C2)(c1ccccc1)c1ccccc1
4. COc1ccc(C(C#N)(CC#CCNCc2c3ccccc3cc3ccccc23)C(C)C)cc1OC.Cl (centres undefined)
5. C=CCNc1nc(NCC=C)nc(N2CCC(NCC#CCC(C#N)(c3ccc(OC)c(OC)c3)C(C)C)CC2)n1.Cl (centres undefined)
6. COc1ccc(C(C#N)(CC#CCN(C)Cc2c3ccccc3cc3ccccc23)C(C)C)cc1OC.Cl (centres undefined)
7. COc1ccc(C(C#N)(CCCNCC(c2ccccc2)c2ccccc2)C(C)C)cc1OC.Cl (centres undefined)

Completion:
[660, 1170, 1030, 1040, 1890, 630, 830]

Hi there! I need EC50 for each item below, if you can.
1. Cl.N#CC(CCCNC1c2ccccc2CCc2ccccc21)(c1ccccc1)c1ccccc1
2. Cl.N#CC(CCCNCC(c1ccccc1)c1ccccc1)(c1ccccc1)c1ccccc1

Completion:
1: 640; 2: 2150

Hi there! I need EC50 for each item below, if you can.
1. COc1ccc(C(C#N)(CC#CCN(C)C23CC4CC(CC(C4)C2)C3)C(C)C)cc1OC.Cl (centres undefined)
2. COc1ccc(C(C#N)(CC#CCNCc2cc3ccccc3c3ccccc23)C(C)C)cc1OC.Cl (centres undefined)
3. CN(CCCC(C#N)(c1ccccc1)c1ccccc1)Cc1c2ccccc2cc2ccccc12.Cl
4. COc1ccc(C(C#N)(CCCN(C)Cc2c3ccccc3cc3ccccc23)C(C)C)cc1OC.Cl (centres undefined)
5. Cl.N#CC(CCCNC(c1ccccc1)c1ccccc1)(c1ccccc1)c1ccccc1

Completion:
2910
1290
890
650
380

---

- Species on record: Cavia porcellus
- experimental details: Decrease in developed tension of the left atrium of guinea pig expressed as the negative inotropy.
- Format: functional, Cardiac atrium
- Parameters: concentration or dose not given beside the values
What Activity was measured for each of the following?
One number for each entry, in %.

As a guide, the following entries are already answered.
Cl.N#CC(CCCNCc1cc2ccccc2c2ccccc12)(c1ccccc1)c1ccccc1 = 61
COc1ccc(C(C#N)(CCCN(C)Cc2c3ccccc3cc3ccccc23)C(C)C)cc1OC.Cl (stereo not given) = 85
COc1ccc(C(C#N)(CCCN(C)CC23CC4CC(CC(C4)C2)C3)C(C)C)cc1OC.Cl (stereo not given) = 68
COc1ccc(C(C#N)(CCCNCc2c3ccccc3cc3ccccc23)C(C)C)cc1OC.Cl (stereo not given) = 55

Note: attention shifts to another entry.
Form field Activity, entry Cl.N#CC(CCCNCc1c2ccccc2cc2ccccc12)(c1ccccc1)c1ccccc1 : 48

---

- Species: Cavia porcellus
- experimental details: Percent inhibition of calcium-induced contraction on K+ depolarized guinea pig aortic strip.
- Type: functional, Aorta
- Parameters: concentration or dose not given beside the values
quantity kind: Activity (%)
Numbers only, in %.

As a guide, the following entries are already answered.
C=CCNc1nc(NCC=C)nc(N2CCC(NCCCC(C#N)(c3ccc(OC)c(OC)c3)C(C)C)CC2)n1.Cl (configuration not stated) = 62
Cl.N#CC(CCCNC1c2ccccc2CCc2ccccc21)(c1ccccc1)c1ccccc1 = 5
CN(CCCC(C#N)(c1ccccc1)c1ccccc1)C1c2ccccc2-c2ccccc21.Cl = 5
Cl.N#CC(CCCNCc1cc2ccccc2c2ccccc12)(c1ccccc1)c1ccccc1 = 3
Cl.N#CC(CCCNC12CC3CC(CC(C3)C1)C2)(c1ccccc1)c1ccccc1 = 55

Hi there! I need Activity for each item below, if you can.
1. Cl.N#CC(CCCNC1c2ccccc2-c2ccccc21)(c1ccccc1)c1ccccc1
2. C=CCNc1nc(NCC=C)nc(N2CCC(NCC#CCC(C#N)(c3ccc(OC)c(OC)c3)C(C)C)CC2)n1.Cl (configuration not stated)
3. Cl.N#CC(CCCNC(c1ccccc1)c1ccccc1)(c1ccccc1)c1ccccc1
4. COc1ccc(C(C#N)(CCCNCC(c2ccccc2)c2ccccc2)C(C)C)cc1OC.Cl (configuration not stated)
5. COc1ccc(C(C#N)(CC#CCN(C)Cc2c3ccccc3cc3ccccc23)C(C)C)cc1OC.Cl (configuration not stated)
6. COc1ccc(C(C#N)(CC#CCN(C)C23CC4CC(CC(C4)C2)C3)C(C)C)cc1OC.Cl (configuration not stated)

Completion:
1. 37
2. 16
3. 15
4. 37
5. 46
6. 33

Hi there! I need Activity for each item below, if you can.
1. COc1ccc(C(C#N)(CC#CCNC2c3ccccc3-c3ccccc32)C(C)C)cc1OC.Cl (configuration not stated)
2. COc1ccc(C(C#N)(CCCN(C)CC2c3ccccc3-c3ccccc32)C(C)C)cc1OC.Cl (configuration not stated)
3. COc1ccc(C(C#N)(CC#CCN(C)CC2c3ccccc3-c3ccccc32)C(C)C)cc1OC.Cl (configuration not stated)
4. COc1ccc(C(C#N)(CC#CCNCC(c2ccccc2)c2ccccc2)C(C)C)cc1OC.Cl (configuration not stated)
5. COc1ccc(C(C#N)(CCCN(C)Cc2c3ccccc3cc3ccccc23)C(C)C)cc1OC.Cl (configuration not stated)
6. Cl.N#CC(CCCNCc1c2ccccc2cc2ccccc12)(c1ccccc1)c1ccccc1
7. COc1ccc(C(C#N)(CCCNC(c2ccccc2)c2ccccc2)C(C)C)cc1OC.Cl (configuration not stated)
8. COc1ccc(C(C#N)(CC#CCNCc2c3ccccc3cc3ccccc23)C(C)C)cc1OC.Cl (configuration not stated)

Completion:
42
11
12
54
9
6
32
12

Data origin: ChEMBL document CHEMBL1132206
